Data origin, for the record: patent US5700804A

Target: PAI-1 (Homo sapiens)
Assay: PAI chromogenic substrate assay (first S2251 assay, tPA/plasminogen system)
Format: biochemical
Details: Concentration 12.5 μm
Can you tell me Inhibition of PAI-1 in the first S2251 chromogenic substrate assay for the items I'm about to list?
Unit % implied. Number only.

Request body: readout Inhibition of PAI-1 in the first S2251 chromogenic substrate assay, system PAI-1 (Homo sapiens), query `COc1ccc(/C=c2\[nH]c(=O)/c(=C/c3ccccc3)[nH]c2=O)cc1OC` . Return the value.
6

Request body: readout Inhibition of PAI-1 in the first S2251 chromogenic substrate assay, system PAI-1 (Homo sapiens), query `COc1ccc(/C=c2\[nH]c(=O)/c(=C/c3c(Cl)cccc3Cl)[nH]c2=O)cc1` . Return the value.
1

Request body: readout Inhibition of PAI-1 in the first S2251 chromogenic substrate assay, system PAI-1 (Homo sapiens), query `COc1ccc(/C=c2\[nH]c(=O)/c(=C/c3ccc(OC)c(OC)c3)[nH]c2=O)cc1` . Return the value.
0

Request body: readout Inhibition of PAI-1 in the first S2251 chromogenic substrate assay, system PAI-1 (Homo sapiens), query `COc1ccc(/C=c2\[nH]c(=O)/c(=C/c3ccc(S(C)(=O)=O)cc3)[nH]c2=O)cc1` . Return the value.
14

Request body: readout Inhibition of PAI-1 in the first S2251 chromogenic substrate assay, system PAI-1 (Homo sapiens), query `CCCCOc1ccc(/C=c2\[nH]c(=O)/c(=C/c3ccccc3)[nH]c2=O)cc1` . Return the value.
3

Request body: readout Inhibition of PAI-1 in the first S2251 chromogenic substrate assay, system PAI-1 (Homo sapiens), query `COc1ccc(/C=c2\[nH]c(=O)/c(=C/c3ccc(OC)cc3OC)[nH]c2=O)cc1` . Return the value.
2

Request body: readout Inhibition of PAI-1 in the first S2251 chromogenic substrate assay, system PAI-1 (Homo sapiens), query `COc1ccc(/C=c2\[nH]c(=O)/c(=C/c3ccc(N(C)C(C)=O)cc3)[nH]c2=O)cc1` . Return the value.
8

Request body: readout Inhibition of PAI-1 in the first S2251 chromogenic substrate assay, system PAI-1 (Homo sapiens), query `CC(=O)OCc1ccc(/C=c2\[nH]c(=O)/c(=C/c3ccccc3)[nH]c2=O)cc1` . Return the value.
1

* * *

Molecular target: PAI-1 (Homo sapiens, UniProt P05121)
Sequence (P05121 24-402): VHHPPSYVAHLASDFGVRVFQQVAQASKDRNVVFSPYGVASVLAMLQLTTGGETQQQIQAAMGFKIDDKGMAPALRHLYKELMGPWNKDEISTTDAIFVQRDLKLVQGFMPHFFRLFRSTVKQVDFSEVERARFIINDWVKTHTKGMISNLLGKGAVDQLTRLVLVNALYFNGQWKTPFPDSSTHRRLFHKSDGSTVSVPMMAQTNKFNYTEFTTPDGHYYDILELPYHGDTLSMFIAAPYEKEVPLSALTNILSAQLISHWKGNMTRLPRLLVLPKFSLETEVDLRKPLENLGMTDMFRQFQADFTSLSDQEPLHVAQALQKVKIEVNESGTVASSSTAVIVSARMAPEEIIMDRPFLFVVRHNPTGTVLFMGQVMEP
Assay: PAI chromogenic substrate assay (first S2251 assay, tPA/plasminogen system)
Assay type: biochemical
Conditions: Concentration 25 μm
Can you tell me Inhibition of PAI-1 in the first S2251 chromogenic substrate assay for the items I'm about to list?
Unit % implied. Number only.

Consider the molecule shown here: CC(=O)Nc1ccc(/C=c2\[nH]c(=O)/c(=C/c3c(Cl)cccc3Cl)[nH]c2=O)cc1 [Compound 40] What is its recorded Inhibition of PAI-1 in the first S2251 chromogenic substrate assay?
23

Consider the molecule shown here: CN(C)CCCOc1ccc(/C=c2\[nH]c(=O)/c(=C/c3ccccc3)[nH]c2=O)cc1 [Compound 75] What is its recorded Inhibition of PAI-1 in the first S2251 chromogenic substrate assay?
33

Consider the molecule shown here: COc1ccc(/C=c2\[nH]c(=O)/c(=C/c3ccc(N(C)C(C)=O)cc3)[nH]c2=O)cc1 [Compound 41] What is its recorded Inhibition of PAI-1 in the first S2251 chromogenic substrate assay?
32

Consider the molecule shown here: O=c1[nH]/c(=C\c2ccccc2)c(=O)[nH]/c1=C\c1ccccc1 [Compound 45] What is its recorded Inhibition of PAI-1 in the first S2251 chromogenic substrate assay?
1

Consider the molecule shown here: COC(=O)CCCC(=O)NCc1ccc(/C=c2\[nH]c(=O)/c(=C/c3ccccc3)[nH]c2=O)cc1 [Compound 94] What is its recorded Inhibition of PAI-1 in the first S2251 chromogenic substrate assay?
83

Consider the molecule shown here: COc1ccc(/C=c2\[nH]c(=O)/c(=C/c3ccc(OC(C)=O)cc3)[nH]c2=O)cc1 [Compound 37] What is its recorded Inhibition of PAI-1 in the first S2251 chromogenic substrate assay?
2

Consider the molecule shown here: CCOc1ccc(/C=c2\[nH]c(=O)/c(=C/c3ccccc3)[nH]c2=O)cc1 [Compound 25] What is its recorded Inhibition of PAI-1 in the first S2251 chromogenic substrate assay?
1

Consider the molecule shown here: COc1ccc(/C=c2\[nH]c(=O)/c(=C/c3ccc(NC(=O)COC(C)=O)cc3)[nH]c2=O)cc1 [Compound 87] What is its recorded Inhibition of PAI-1 in the first S2251 chromogenic substrate assay?
70
